All values here come from the supplement of paper PMC9170038.

Tested on: MS2 coat protein
Protocol text: apparent KD of MS2 coat protein; higher = weaker reporter binding
Condition summary: Eterna round: R107; input ligand: tryptophan 2.4 mM
Quick reference: apparent KD of MS2 coat protein of the listed items.
State just the number; it will be interpreted in nM.

Sample records with apparent KD of MS2 coat protein:
| Sequence data | Recorded value |
| --- | --- |
| ACGAACGCACCUGAGGAACACCCAGGUGAUACCAGCCUGGAAACAGGCCCUUGGCAGCACCUAAAAUAAAGGUAACGUUCGAAUA [TheoAX8 #MicroSwitchBubble #AlternativeMS2] | 98.9 |
| UGAGAGGGCAGAAGGAGCGACAUGAGGAUCACCCAUGUCUCCCGUUAUGGGAGUUCUUUAGGUCAGGUAGGUCGCUGGCCUCUCA [#1 Exclusion - Arginine B Attempt #9 (Inspired by Omei)] | 99.5 |
| UUCAGCUAGUCGGCCGCCACUAUCUGAGGAUCACCCAGGUAAUCCUAACACUGCUUCGGCAGUGGUAGGACCGGGACUAGCUGAG | 10.6 |
| GAUAUAACAAAAGUUGUAUCAGUGGGUGAACGAGGACCGGUACGGCCGCCACUCGGACAUGAGGAUCACCCAUGUCCAUGUGAAA [AstrosExyTryA#18] | 44.3 |

I'd like to know its apparent KD of MS2 coat protein. The sequence in question is UUGUUGUUUGGAAGGAGCGUGUAAGAUUAAGAACAUGAGGAUCACCCAUGUUUUAAGGGAACACAGGUAGGUCGCCGGGUGGUGG [11.R]
15.6

I am curious: what apparent KD of MS2 coat protein value has been reported for ACAUGAGGAUCACCCAUGUAAUAAUCAGAAGGAGCGUGGAAUAACACAGGUAGGUCGCUGAUGUUUGGUUAAAUGUAAUCGUGUA [JR_SSArginiA_Sub001] ?
17.1
